Every entry's value here was drawn from patent US20240279205A1.

Target: human STING (hSTING) (Homo sapiens, UniProt Q86WV6)
Sequence (Q86WV6 whole entry H232R): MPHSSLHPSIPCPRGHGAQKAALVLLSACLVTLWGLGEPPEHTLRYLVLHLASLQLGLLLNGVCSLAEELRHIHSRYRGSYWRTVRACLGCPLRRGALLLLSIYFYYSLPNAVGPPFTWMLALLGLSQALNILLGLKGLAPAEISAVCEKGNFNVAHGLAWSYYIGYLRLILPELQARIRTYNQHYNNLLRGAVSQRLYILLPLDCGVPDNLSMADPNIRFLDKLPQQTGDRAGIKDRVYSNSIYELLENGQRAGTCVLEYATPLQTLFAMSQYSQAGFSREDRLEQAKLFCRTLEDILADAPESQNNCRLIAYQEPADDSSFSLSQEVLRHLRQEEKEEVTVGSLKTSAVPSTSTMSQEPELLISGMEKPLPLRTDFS
Experiment: Inhibition test of intracellular human STING (hSTING) pathway using SEAP reporter cells (HEK-Blue ISG), stimulation with Compound 3
Conditions: Compound 3 10 nM stimulation, 21 hours, read-out: hSTING inhibitory activity
pIC50: −log10 of the molar value.
Overview of reported pIC50 across a group of compounds:
quantity-kind: pIC50

smiles-data: c1ccc(-c2ccc3[nH]cc(Nc4nc5ccccc5[nH]4)c3c2)cc1
quantity-kind: pIC50
observed-measurement: ≤ 5.00

smiles-data: Brc1cccc2[nH]cc(Nc3nc4ccccc4[nH]3)c12
quantity-kind: pIC50
observed-measurement: ≤ 5.00

smiles-data: FC(F)(F)c1ccc2c(c1)nc(Nc1c[nH]c3ccc(Cl)nc13)n2C1CC1
quantity-kind: pIC50
observed-measurement: 5.00 to 6.00

smiles-data: C#CCNC(=O)c1ccc2[nH]cc(Nc3nc4cc(Oc5ccccc5)ccc4[nH]3)c2c1
quantity-kind: pIC50
observed-measurement: ≤ 5.00

smiles-data: CS(=O)(=O)c1ccc(Oc2ccc3[nH]c(Nc4c[nH]c5ccc(Br)nc45)nc3c2)cc1
quantity-kind: pIC50
observed-measurement: 5.00 to 6.00

smiles-data: Cn1c(Nc2c[nH]c3ccc(Cl)nc23)nc2cc(Oc3cccnc3)ccc21
quantity-kind: pIC50
observed-measurement: ≤ 5.00

smiles-data: Cn1c(Nc2c[nH]c3ccc(Cl)nc23)nc2cc(Cl)ccc21
quantity-kind: pIC50
observed-measurement: 5.00 to 6.00

smiles-data: Cn1c(Nc2c[nH]c3ccc(Cl)nc23)nc2cc(F)cc(F)c21
quantity-kind: pIC50
observed-measurement: ≤ 5.00

smiles-data: Clc1ccc2[nH]cc(Nc3nc4c(C5CCOCC5)cccc4[nH]3)c2n1
quantity-kind: pIC50
observed-measurement: ≤ 5.00

smiles-data: Cn1c(Nc2c[nH]c3ccc(Cl)nc23)nc2ccc(OC(F)(F)F)cc21
quantity-kind: pIC50
observed-measurement: ≤ 5.00

smiles-data: CN(C)CC#Cc1ccc2[nH]c(Nc3c[nH]c4ccc(Cl)nc34)nc2c1
quantity-kind: pIC50
observed-measurement: ≤ 5.00

smiles-data: Cn1c(Nc2c[nH]c3ccc(Cl)nc23)nc2ccc(Oc3ccc(C#N)cc3)cc21
quantity-kind: pIC50
observed-measurement: ≤ 5.00

smiles-data: Clc1ccc2[nH]cc(Nc3nc4cc5c(cc4[nH]3)OCCO5)c2n1
quantity-kind: pIC50
observed-measurement: 5.00 to 6.00

smiles-data: COCCn1c(Nc2c[nH]c3ccc(Cl)nc23)nc2c(C(F)(F)F)cccc21
quantity-kind: pIC50
observed-measurement: ≤ 5.00

smiles-data: Cn1c(Nc2c[nH]c3ccc(Cl)nc23)nc2ccc(F)c(F)c21
quantity-kind: pIC50
observed-measurement: ≤ 5.00

smiles-data: COCCn1c(Nc2c[nH]c3ccc(Cl)nc23)nc2c(F)c(F)ccc21
quantity-kind: pIC50
observed-measurement: ≤ 5.00

smiles-data: Cc1ccc2nc(Nc3c[nH]c4ccc(Cl)nc34)n(C)c2c1
quantity-kind: pIC50
observed-measurement: ≤ 5.00

smiles-data: CS(=O)(=O)c1ccccc1Oc1ccc2[nH]c(Nc3c[nH]c4ccc(Br)nc34)nc2c1
quantity-kind: pIC50
observed-measurement: ≤ 5.00

smiles-data: COCCn1c(Nc2c[nH]c3ccc(Cl)nc23)nc2cc(Cl)c(Cl)cc21
quantity-kind: pIC50
observed-measurement: 5.00 to 6.00

smiles-data: Cn1c(Nc2c[nH]c3ccc(Cl)nc23)nc2cc(Br)ccc21
quantity-kind: pIC50
observed-measurement: 5.00 to 6.00

smiles-data: O=C(O)c1ccc2[nH]c(Nc3c[nH]c4ccc(Br)nc34)nc2c1
quantity-kind: pIC50
observed-measurement: ≤ 5.00

smiles-data: FC(F)(F)c1ccc2c(c1)nc(Nc1c[nH]c3ccc(Cl)cc13)n2N1CCOCC1
quantity-kind: pIC50
observed-measurement: 5.00 to 6.00

smiles-data: C1=C(c2ccc3[nH]cc(Nc4nc5cc(Oc6ccccc6)ccc5[nH]4)c3n2)CCCC1
quantity-kind: pIC50
observed-measurement: 5.00 to 6.00

smiles-data: Cn1cnc(-n2c(Nc3c[nH]c4ccc(Cl)cc34)nc3cc(C(F)(F)F)ccc32)c1
quantity-kind: pIC50
observed-measurement: ≤ 5.00

smiles-data: C=Cc1ccc2[nH]cc(Nc3nc4cc(C(F)(F)F)ccc4n3C)c2n1
quantity-kind: pIC50
observed-measurement: 5.00 to 6.00

smiles-data: Cn1c(Nc2c[nH]c3ccc(Cl)nc23)nc2cc(C3CCOCC3)ccc21
quantity-kind: pIC50
observed-measurement: ≤ 5.00

smiles-data: COCCn1c(Nc2c[nH]c3ccc(Cl)nc23)nc2ccc(Oc3cccnc3)cc21
quantity-kind: pIC50
observed-measurement: ≤ 5.00

smiles-data: COCCn1c(Nc2c[nH]c3ccc(Cl)nc23)nc2cc(F)cc(F)c21
quantity-kind: pIC50
observed-measurement: ≤ 5.00

smiles-data: Cn1c(Nc2c[nH]c3ccc(Br)nc23)nc2ccc(C(F)(F)F)cc21
quantity-kind: pIC50
observed-measurement: ≤ 5.00

smiles-data: Cn1cc(-c2ccc3[nH]c(Nc4c[nH]c5ccc(Cl)nc45)nc3c2)cn1
quantity-kind: pIC50
observed-measurement: ≤ 5.00

smiles-data: Fc1ccc2[nH]cc(Nc3nc4ccccc4[nH]3)c2c1
quantity-kind: pIC50
observed-measurement: ≤ 5.00

smiles-data: CS(=O)(=O)CCn1c(Nc2c[nH]c3ccc(Cl)cc23)nc2cc(C(F)(F)F)ccc21
quantity-kind: pIC50
observed-measurement: 5.00 to 6.00

smiles-data: Clc1ccc2[nH]cc(Nc3nc4cc(-c5cccnc5)ccc4[nH]3)c2n1
quantity-kind: pIC50
observed-measurement: 5.00 to 6.00

smiles-data: Brc1cnc2[nH]cc(Nc3nc4cc(Oc5ccccc5)ccc4[nH]3)c2n1
quantity-kind: pIC50
observed-measurement: ≤ 5.00
